Consider the following compounds and their measured MIC readings.
- System: Staphylococcus aureus
- Assay details: In vitro antimicrobial activity against Staphylococcus aureus X1
- Assay type: functional
Reported property: MIC (µg/mL)

{"Given smiles": "CC[C@H]1C[C@@H](C)C(=O)/C=C/C(C)=C/[C@H](CO)[C@@H](CC)OC(=O)C[C@@H](O)[C@H](C)[C@H]1O[C@@H]1O[C@H](C)[C@@H](O)[C@H](N(C)C)[C@H]1O", "Reported property": "MIC", "Reading unit": "µg/mL", "Experimental value": 4}
{"Given smiles": "CC[C@H]1OC(=O)C[C@@H](O)[C@H](C)[C@@H](O[C@@H]2O[C@H](C)[C@@H](O)[C@H](N(C)C)[C@H]2O)[C@@H](CCNCCc2ccccc2)C[C@@H](C)C(=O)/C=C/C(C)=C/[C@@H]1CO[C@@H]1O[C@H](C)[C@@H](O)[C@@H](OC)[C@H]1OC", "Reported property": "MIC", "Reading unit": "µg/mL", "Experimental value": 0.5}
{"Given smiles": "CC[C@H]1OC(=O)C[C@@H](O)[C@H](C)[C@@H](O[C@@H]2O[C@H](C)[C@@H](O)[C@H](N(C)C)[C@H]2O)[C@@H](CC=O)C[C@@H](C)C(=O)/C=C/C(C)=C/[C@@H]1CO[C@@H]1O[C@H](C)[C@@H](O)[C@@H](OC)[C@H]1OC", "Reported property": "MIC", "Reading unit": "µg/mL", "Experimental value": 0.5}
{"Given smiles": "CC[C@H]1OC(=O)C[C@@H](O)[C@H](C)[C@@H](O[C@@H]2O[C@H](C)[C@@H](O)[C@H](N(C)C)[C@H]2O)[C@@H](CCO)C[C@@H](C)C(=O)/C=C/C(C)=C/[C@@H]1CO", "Reported property": "MIC", "Reading unit": "µg/mL", "Experimental value": 64}
{"Given smiles": "CCOC(=O)c1ccc(OCC[C@H]2C[C@@H](C)C(=O)/C=C/C(C)=C/[C@H](CO[C@@H]3O[C@H](C)[C@@H](O)[C@@H](OC)[C@H]3OC)[C@@H](CC)OC(=O)C[C@@H](O)[C@H](C)[C@H]2O[C@@H]2O[C@H](C)[C@@H](O)[C@H](N(C)C)[C@H]2O)cc1", "Reported property": "MIC", "Reading unit": "µg/mL", "Experimental value": 0.5}
{"Given smiles": "CC[C@H]1OC(=O)C[C@@H](O)[C@H](C)[C@@H](O[C@@H]2O[C@H](C)[C@@H](O[C@H]3C[C@@](C)(O)[C@@H](O)[C@H](C)O3)[C@H](N(C)C)[C@H]2O)[C@@H](CCN2CCCCCCC2)C[C@@H](C)C(=O)/C=C/C(C)=C/[C@@H]1CO[C@@H]1O[C@H](C)[C@@H](O)[C@@H](OC)[C@H]1OC", "Reported property": "MIC", "Reading unit": "µg/mL", "Experimental value": 4}
{"Given smiles": "CC[C@H]1OC(=O)C[C@@H](O)[C@H](C)[C@@H](O[C@@H]2O[C@H](C)[C@@H](O)[C@H](N(C)C)[C@H]2O)[C@@H](CCI)C[C@@H](C)C(=O)/C=C/C(C)=C/[C@@H]1CO[C@@H]1O[C@H](C)[C@@H](O)[C@@H](OC)[C@H]1OC", "Reported property": "MIC", "Reading unit": "µg/mL", "Experimental value": 0.5}
{"Given smiles": "CC[C@H]1OC(=O)C[C@@H](O)[C@H](C)[C@@H](O[C@@H]2O[C@H](C)[C@@H](O)[C@H](N(C)C)[C@H]2O)[C@@H](CC=O)C[C@@H](C)C(=O)/C=C/C(C)=C/[C@@H]1CO[C@@H]1O[C@H](C)[C@@H](O)[C@@H](O)[C@H]1OC", "Reported property": "MIC", "Reading unit": "µg/mL", "Experimental value": 2}
{"Given smiles": "CC[C@H]1OC(=O)C[C@@H](O)[C@H](C)[C@@H](O[C@@H]2O[C@H](C)[C@@H](O)[C@H](N(C)C)[C@H]2O)[C@@H](CCOc2cccc(N(C)C)c2)C[C@@H](C)C(=O)/C=C/C(C)=C/[C@@H]1CO[C@@H]1O[C@H](C)[C@@H](O)[C@@H](OC)[C@H]1OC", "Reported property": "MIC", "Reading unit": "µg/mL", "Experimental value": 0.5}
{"Given smiles": "CC[C@H]1OC(=O)C[C@@H](O)[C@H](C)[C@@H](O[C@@H]2O[C@H](C)[C@@H](O)[C@H](N(C)C)[C@H]2O)[C@@H](CCO)C[C@@H](C)C(=O)/C=C/C(C)=C/[C@@H]1CO[C@@H]1O[C@H](C)[C@@H](O)[C@@H](O)[C@H]1OC", "Reported property": "MIC", "Reading unit": "µg/mL", "Experimental value": 8}
{"Given smiles": "CC[C@H]1OC(=O)C[C@@H](O)[C@H](C)[C@@H](O[C@@H]2O[C@H](C)[C@@H](O[C@H]3C[C@@](C)(O)[C@@H](O)[C@H](C)O3)[C@H](N(C)C)[C@H]2O)[C@@H](CCN2C(=O)c3ccccc3C2=O)C[C@@H](C)C(=O)/C=C/C(C)=C/[C@@H]1CO[C@@H]1O[C@H](C)[C@@H](O)[C@@H](OC)[C@H]1OC", "Reported property": "MIC", "Reading unit": "µg/mL", "Experimental value": 1}
{"Given smiles": "CC[C@H]1OC(=O)C[C@@H](O)[C@H](C)[C@@H](O[C@@H]2O[C@H](C)[C@@H](O[C@H]3C[C@@](C)(O)[C@@H](O)[C@H](C)O3)[C@H](N(C)C)[C@H]2O)[C@@H](C)C[C@@H](C)C(=O)/C=C/C(C)=C/[C@@H]1CO[C@@H]1O[C@H](C)[C@@H](O)[C@@H](OC)[C@H]1OC", "Reported property": "MIC", "Reading unit": "µg/mL", "Experimental value": 0.5}
{"Given smiles": "CC[C@H]1OC(=O)C[C@@H](O)[C@H](C)[C@@H](O[C@@H]2O[C@H](C)[C@@H](O[C@H]3C[C@@](C)(O)[C@@H](O)[C@H](C)O3)[C@H](N(C)C)[C@H]2O)[C@@H](C)C[C@@H](C)C(=O)/C=C/C(C)=C/[C@@H]1CO[C@@H]1O[C@H](C)[C@@H](O)[C@@H](O)[C@H]1OC", "Reported property": "MIC", "Reading unit": "µg/mL", "Experimental value": 2}
{"Given smiles": "CC[C@H]1C[C@@H](C)C(=O)/C=C/C(C)=C/[C@H](CO)[C@@H](CC)OC(=O)C[C@@H](O)[C@H](C)[C@H]1O[C@@H]1O[C@H](C)[C@@H](O[C@H]2C[C@@](C)(O)[C@@H](O)[C@H](C)O2)[C@H](N(C)C)[C@H]1O", "Reported property": "MIC", "Reading unit": "µg/mL", "Experimental value": 128}
{"Given smiles": "CC[C@H]1OC(=O)C[C@@H](O)[C@H](C)[C@@H](O[C@@H]2O[C@H](C)[C@@H](O[C@H]3C[C@@](C)(O)[C@@H](O)[C@H](C)O3)[C@H](N(C)C)[C@H]2O)[C@@H](CCN2CCCCCCC2)C[C@@H](C)C(=O)/C=C/C(C)=C/[C@@H]1CO[C@@H]1O[C@H](C)[C@@H](O)[C@@H](O)[C@H]1OC", "Reported property": "MIC", "Reading unit": "µg/mL", "Experimental value": 4}
